Recorded values, source patent US12275719B2.

System Tested: His-tagged recombinant human Gal-3 (hGal-3) (Homo sapiens, UniProt P17931)
Sequence (P17931 whole entry): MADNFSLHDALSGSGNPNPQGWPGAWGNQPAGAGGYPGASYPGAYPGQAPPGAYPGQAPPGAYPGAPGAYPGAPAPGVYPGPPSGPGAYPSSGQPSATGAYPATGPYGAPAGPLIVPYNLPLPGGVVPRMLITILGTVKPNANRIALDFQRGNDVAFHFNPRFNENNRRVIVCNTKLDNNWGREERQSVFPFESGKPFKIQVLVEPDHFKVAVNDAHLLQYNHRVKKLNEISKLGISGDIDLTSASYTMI
Protocol Summary: Gal-3 HTRF assay (hGal-3 / B-ASF binding inhibition)
Measurement Setup: table of Examples 30 to 65
Metric: IC50 (nM)

{"columns": ["Structure String", "System Tested", "Reading Unit", "Measured Number"],
 "data": [
  ["CO[C@@H]1[C@@H](n2cc(-c3ccc(Cl)c(F)c3F)nn2)[C@@H](O)[C@@H](CO)O[C@H]1c1nncn1-c1cc(Cl)ccc1OC(F)(F)F", "His-tagged recombinant human Gal-3 (hGal-3) (Homo sapiens, UniProt P17931)", "nM", 11],
  ["OC[C@H]1O[C@@H](c2nncn2-c2cc(Cl)ccc2C(F)(F)F)[C@H](O)[C@@H](n2cc(-c3ccc(Cl)c(F)c3F)nn2)[C@H]1O", "His-tagged recombinant human Gal-3 (hGal-3) (Homo sapiens, UniProt P17931)", "nM", 9.7],
  ["OC[C@H]1O[C@@H](c2nncn2-c2cc(Cl)ccc2C(F)(F)F)[C@H](OCC(F)(F)F)[C@@H](n2cc(-c3ccc(Br)c(F)c3F)nn2)[C@H]1O", "His-tagged recombinant human Gal-3 (hGal-3) (Homo sapiens, UniProt P17931)", "nM", 14],
  ["CO[C@@H]1[C@@H](n2cc(-c3ccc(Br)c(F)c3)nn2)[C@@H](O)[C@@H](CO)O[C@H]1c1ncnn1-c1cc(Cl)ccc1C(F)(F)F", "His-tagged recombinant human Gal-3 (hGal-3) (Homo sapiens, UniProt P17931)", "nM", 22],
  ["OC[C@H]1O[C@@H](c2nncn2-c2cc(Cl)ccc2C(F)(F)F)[C@H](OCC(F)(F)C(F)F)[C@@H](n2cc(-c3ccc(Br)c(F)c3)nn2)[C@H]1O", "His-tagged recombinant human Gal-3 (hGal-3) (Homo sapiens, UniProt P17931)", "nM", 100],
  ["CO[C@@H]1[C@@H](n2cc(-c3cc(F)c(Br)c(F)c3)nn2)[C@@H](O)[C@@H](CO)O[C@H]1c1ncnn1-c1cc(Cl)ccc1C(F)(F)F", "His-tagged recombinant human Gal-3 (hGal-3) (Homo sapiens, UniProt P17931)", "nM", 24],
  ["OC[C@H]1O[C@@H](c2nncn2-c2cc(Cl)ccc2OC(F)(F)F)[C@H](OCC(F)F)[C@@H](n2cc(-c3ccc(Cl)c(F)c3F)nn2)[C@H]1O", "His-tagged recombinant human Gal-3 (hGal-3) (Homo sapiens, UniProt P17931)", "nM", 19],
  ["OC[C@H]1O[C@@H](c2nncn2-c2cc(Cl)ccc2OC(F)(F)F)[C@H](OCC(F)(F)F)[C@@H](n2cc(-c3ccc(Br)c(F)c3F)nn2)[C@H]1O", "His-tagged recombinant human Gal-3 (hGal-3) (Homo sapiens, UniProt P17931)", "nM", 57],
  ["OC[C@H]1O[C@@H](c2nncn2-c2cc(Cl)ccc2OC(F)(F)F)[C@H](O)[C@@H](n2cc(-c3ccc(Cl)c(F)c3F)nn2)[C@H]1O", "His-tagged recombinant human Gal-3 (hGal-3) (Homo sapiens, UniProt P17931)", "nM", 14],
  ["CO[C@@H]1[C@@H](n2cc(-c3c(F)c(F)c(Br)c(F)c3F)nn2)[C@@H](O)[C@@H](CO)O[C@H]1c1nncn1-c1cc(Cl)ccc1OC(F)(F)F", "His-tagged recombinant human Gal-3 (hGal-3) (Homo sapiens, UniProt P17931)", "nM", 11],
  ["CO[C@@H]1[C@@H](n2cc(-c3cc(F)c(Cl)c(Cl)c3)nn2)[C@@H](O)[C@@H](CO)O[C@H]1c1nncn1-c1cc(Cl)ccc1C(F)(F)F", "His-tagged recombinant human Gal-3 (hGal-3) (Homo sapiens, UniProt P17931)", "nM", 35]
]}
